Provide the recorded fluorescence, percent of control (lower = inhibition) for the entries that follow.
Biological target: Cell division control protein 42 homolog (Homo sapiens)
Experiment: inhibition of fluorescent GTP binding to wildtype Cdc42 – biochemical, multiplex bead flow cytometry, Bodipy-FL-GTP, dose response (AID 1334)
Conditions: bead-based flow cytometry, Bodipy-FL-GTP binding to GST-Cdc42; at 100 µM (top of the series) unless noted
Measured potencies and affinities stand elsewhere.
Give a bare numeral; the unit % is implied.

Lookup: # value lookup — system Cell division control protein 42 homolog (Homo sapiens), readout fluorescence, percent of control (lower = inhibition), item COc1cccc(N=Nc2c(N)[nH]n3c(=O)c4c(nc23)CCCC4)c1
Found: 29.6

Lookup: # value lookup — system Cell division control protein 42 homolog (Homo sapiens), readout fluorescence, percent of control (lower = inhibition), item O=C(OCCN1CCCCC1)c1cc2ccccc2o1
Found: 34.8

Lookup: # value lookup — system Cell division control protein 42 homolog (Homo sapiens), readout fluorescence, percent of control (lower = inhibition), item O=C(Nc1cccc(-c2nnc(-c3ccco3)o2)c1)c1ccccc1
Found: 33.7

Lookup: # value lookup — system Cell division control protein 42 homolog (Homo sapiens), readout fluorescence, percent of control (lower = inhibition), item COc1cc(N2CCCC2)c(OC)cc1/C=C(/C#N)c1cccc(F)c1
Found: 137

Lookup: # value lookup — system Cell division control protein 42 homolog (Homo sapiens), readout fluorescence, percent of control (lower = inhibition), item NC(=S)Nc1cccc2cc3ccccc3cc12
Found: 75.3

Lookup: # value lookup — system Cell division control protein 42 homolog (Homo sapiens), readout fluorescence, percent of control (lower = inhibition), item c1ccc(C2=Nn3c(nnc3-c3ccco3)SC2)cc1
Found: 34

Lookup: # value lookup — system Cell division control protein 42 homolog (Homo sapiens), readout fluorescence, percent of control (lower = inhibition), item COCCCNc1nc(=S)[nH]c2cc(OC)c(OC)cc12
Found: 32.5

Lookup: # value lookup — system Cell division control protein 42 homolog (Homo sapiens), readout fluorescence, percent of control (lower = inhibition), item CC(C)(C)C(=O)c1sc2nc(-c3cccs3)cc(C(F)(F)F)c2c1N
Found: 86.4

Lookup: # value lookup — system Cell division control protein 42 homolog (Homo sapiens), readout fluorescence, percent of control (lower = inhibition), item Cc1ccc(-c2cn3cccc(C)c3n2)cc1
Found: 35.6

Lookup: # value lookup — system Cell division control protein 42 homolog (Homo sapiens), readout fluorescence, percent of control (lower = inhibition), item COc1ccc(NC(=O)c2cc3nc(-c4ccccc4)cc(C)n3n2)cc1OC
Found: 33.2

Lookup: # value lookup — system Cell division control protein 42 homolog (Homo sapiens), readout fluorescence, percent of control (lower = inhibition), item O=[N+]([O-])c1cc(-c2ncccn2)c([N+](=O)[O-])s1
Found: 16.9

Lookup: # value lookup — system Cell division control protein 42 homolog (Homo sapiens), readout fluorescence, percent of control (lower = inhibition), item Cc1ccc(SC(CC(=O)c2ccc(C(C)(C)C)cc2)C(=O)O)cc1 (stereo not given)
Found: 26.6

Lookup: # value lookup — system Cell division control protein 42 homolog (Homo sapiens), readout fluorescence, percent of control (lower = inhibition), item O=S(=O)(CC(CN1CCOCC1)N1CCOCC1)c1ccccc1 (stereo not given)
Found: 43.3

Lookup: # value lookup — system Cell division control protein 42 homolog (Homo sapiens), readout fluorescence, percent of control (lower = inhibition), item Cc1ccc(C(=O)c2ccccc2C(=O)O)cc1
Found: 67.4

Lookup: # value lookup — system Cell division control protein 42 homolog (Homo sapiens), readout fluorescence, percent of control (lower = inhibition), item CCN(CC)c1ccc(-c2nn3c(-c4cccnc4)nnc3s2)cc1
Found: 72.7

Lookup: # value lookup — system Cell division control protein 42 homolog (Homo sapiens), readout fluorescence, percent of control (lower = inhibition), item COc1cc(/C=N/NC(=S)Nc2cccnc2)cc(OC)c1O
Found: 31.8

Lookup: # value lookup — system Cell division control protein 42 homolog (Homo sapiens), readout fluorescence, percent of control (lower = inhibition), item Cc1nn(-c2ccc(F)cc2)c(Cl)c1/C=C(\CC(=O)O)c1nc2ccccc2s1
Found: 77.1

Lookup: # value lookup — system Cell division control protein 42 homolog (Homo sapiens), readout fluorescence, percent of control (lower = inhibition), item Cc1nc2sccn2c1-c1nc(-c2cc3ccccc3o2)cs1
Found: 50.9

Lookup: # value lookup — system Cell division control protein 42 homolog (Homo sapiens), readout fluorescence, percent of control (lower = inhibition), item COc1nc(Nc2ccc(O)cc2)nc(OC(C(F)(F)F)C(F)(F)F)n1
Found: 101

Lookup: # value lookup — system Cell division control protein 42 homolog (Homo sapiens), readout fluorescence, percent of control (lower = inhibition), item O=C(O)c1cc(C(=O)O)cc(-c2ccc(/C=c3/sc4nc5ccccc5n4c3=O)o2)c1
Found: 30

Lookup: # value lookup — system Cell division control protein 42 homolog (Homo sapiens), readout fluorescence, percent of control (lower = inhibition), item CCOC(=O)c1nc(Nc2ccc(C(=O)OC)cc2)c2ccccc2n1
Found: 43.9

Lookup: # value lookup — system Cell division control protein 42 homolog (Homo sapiens), readout fluorescence, percent of control (lower = inhibition), item COc1cc2[nH]c(=S)nc(NC3CCCCCC3)c2cc1OC
Found: 26.4

Lookup: # value lookup — system Cell division control protein 42 homolog (Homo sapiens), readout fluorescence, percent of control (lower = inhibition), item O=C(/C=C/c1ccc(N2CCC(c3ccccc3)=N2)cc1)c1ccccc1
Found: 344

Lookup: # value lookup — system Cell division control protein 42 homolog (Homo sapiens), readout fluorescence, percent of control (lower = inhibition), item O=C(O)c1ccc(CNCc2cccc(Cl)c2)s1
Found: 61.3

Lookup: # value lookup — system Cell division control protein 42 homolog (Homo sapiens), readout fluorescence, percent of control (lower = inhibition), item Cc1ccc(-c2csc3nc4c5ccccc5c(NCCCN5CCOCC5)nn4c(=O)c23)cc1
Found: 32

Lookup: # value lookup — system Cell division control protein 42 homolog (Homo sapiens), readout fluorescence, percent of control (lower = inhibition), item CC(C)NC(=S)N=Nc1c(O)[nH]c2ccc([N+](=O)[O-])cc12
Found: 29.1

Lookup: # value lookup — system Cell division control protein 42 homolog (Homo sapiens), readout fluorescence, percent of control (lower = inhibition), item Cc1cc(C(=O)CN2C(=O)C(=O)N(Cc3ccccc3)C2=O)c(C)n1-c1ccccc1F
Found: 34.9

Lookup: # value lookup — system Cell division control protein 42 homolog (Homo sapiens), readout fluorescence, percent of control (lower = inhibition), item O=C(CCc1ccccn1)N1CCCC(CNS(=O)(=O)c2cccs2)C1 (stereo not given)
Found: 36.9

Lookup: # value lookup — system Cell division control protein 42 homolog (Homo sapiens), readout fluorescence, percent of control (lower = inhibition), item CCC(=O)N=C1SC2CS(=O)(=O)CC2N1c1cccc(OC)c1 (stereo not given)
Found: 89

Lookup: # value lookup — system Cell division control protein 42 homolog (Homo sapiens), readout fluorescence, percent of control (lower = inhibition), item Cc1ccccc1CSCc1ccc(C(=O)O)o1
Found: 61.3

Lookup: # value lookup — system Cell division control protein 42 homolog (Homo sapiens), readout fluorescence, percent of control (lower = inhibition), item Nc1ccc(-c2cn3cccnc3n2)cc1
Found: 40.9

Lookup: # value lookup — system Cell division control protein 42 homolog (Homo sapiens), readout fluorescence, percent of control (lower = inhibition), item COc1ccc(/C=C2\CCCC3C2=NN(C(=O)c2scnc2C)C3c2ccc(OC)c(OC)c2)cc1OC (stereo not given)
Found: 76.7

Lookup: # value lookup — system Cell division control protein 42 homolog (Homo sapiens), readout fluorescence, percent of control (lower = inhibition), item O=C(COC(=O)C1(c2ccccc2F)CCCC1)Nc1ncc(C(F)(F)F)cc1Cl
Found: 47.6

Lookup: # value lookup — system Cell division control protein 42 homolog (Homo sapiens), readout fluorescence, percent of control (lower = inhibition), item CC(C)Sc1nc(-c2ccccc2)cc(=O)[nH]1
Found: 88.8

Lookup: # value lookup — system Cell division control protein 42 homolog (Homo sapiens), readout fluorescence, percent of control (lower = inhibition), item O=C(CCc1nnc(-c2ccc3c(c2)OCO3)o1)N1CCC(c2ccc(F)cc2)C1 (stereo not given)
Found: 36.1

Lookup: # value lookup — system Cell division control protein 42 homolog (Homo sapiens), readout fluorescence, percent of control (lower = inhibition), item Cn1c(=O)c2c(nc(N/N=C/c3ccco3)n2C)n(C)c1=O
Found: 31.1

Lookup: # value lookup — system Cell division control protein 42 homolog (Homo sapiens), readout fluorescence, percent of control (lower = inhibition), item CC1(C)Cc2c(sc(NC(=O)c3ccc(Br)o3)c2C#N)CO1
Found: 49.4

Lookup: # value lookup — system Cell division control protein 42 homolog (Homo sapiens), readout fluorescence, percent of control (lower = inhibition), item CCOC(=O)c1ccc2ncc(-c3ccccc3)nc2c1
Found: 33.5

Lookup: # value lookup — system Cell division control protein 42 homolog (Homo sapiens), readout fluorescence, percent of control (lower = inhibition), item O=c1c2ccccc2nc2c3ccccc3c(NCCO)nn12
Found: 27.1

Lookup: # value lookup — system Cell division control protein 42 homolog (Homo sapiens), readout fluorescence, percent of control (lower = inhibition), item CC(Sc1nnc(NC2CCCCC2)s1)C(=O)Nc1ccc2c(c1)C(=O)c1ccccc1C2=O (stereo not given)
Found: 49.1

Lookup: # value lookup — system Cell division control protein 42 homolog (Homo sapiens), readout fluorescence, percent of control (lower = inhibition), item COCCN(C(=S)Nc1cc(C)ccc1C)C(C)c1cccnc1 (stereo not given)
Found: 52.6

Lookup: # value lookup — system Cell division control protein 42 homolog (Homo sapiens), readout fluorescence, percent of control (lower = inhibition), item CC(C)(C)NC(=O)CCN(/N=C/c1ccc([N+](=O)[O-])o1)C1=NS(=O)(=O)c2ccccc21
Found: 23.6

Lookup: # value lookup — system Cell division control protein 42 homolog (Homo sapiens), readout fluorescence, percent of control (lower = inhibition), item Cc1nnc2ccc(-c3cccc(NC(=O)c4ccco4)c3)nn12
Found: 28.7

Lookup: # value lookup — system Cell division control protein 42 homolog (Homo sapiens), readout fluorescence, percent of control (lower = inhibition), item O=C(O)c1cccnc1SCc1cccc(F)c1
Found: 78.4

Lookup: # value lookup — system Cell division control protein 42 homolog (Homo sapiens), readout fluorescence, percent of control (lower = inhibition), item COc1ccccc1C(=O)N=Nc1c(O)[nH]c2ccc([N+](=O)[O-])cc12
Found: 23.9
